The following molecules are shown together with reported hemolysis values.
procedure.details: Hemolysis induced by TSPO ligands (Hb release, absorption at 405 nm)
Type: cell-based
settings: human, red blood cells (RBCs), Hb released, mean ± SEM, N = 4, read-out: Hemolysis induced by TSPO ligands treatment
# unit: % | format: bare number

> print(dat)
                                   molecule  value.units  result
1  CCCN(CCC)C(=O)Cn1c(=O)n2cc(-c3ccccc3)nc2c2ccccc21            %    0.52
2  CN(C)C(=O)Cc1nn(-c2ccccc2)c(=O)c2c1c1ccc(Cl)cc1n2C [SSR-180,575, reference compound]            %     0.7

// below: hemolysis requested for another molecule
Give its hemolysis value. Item: "CCN(CC)C(=O)Cn1c(=O)n2cc(-c3ccco3)nc2c2ccccc21"
0.72
